assayed-target: Serine/threonine-protein kinase pim-2 (Homo sapiens, UniProt Q9P1W9)
Sequence (Q9P1W9 whole entry, the tested form may be a part): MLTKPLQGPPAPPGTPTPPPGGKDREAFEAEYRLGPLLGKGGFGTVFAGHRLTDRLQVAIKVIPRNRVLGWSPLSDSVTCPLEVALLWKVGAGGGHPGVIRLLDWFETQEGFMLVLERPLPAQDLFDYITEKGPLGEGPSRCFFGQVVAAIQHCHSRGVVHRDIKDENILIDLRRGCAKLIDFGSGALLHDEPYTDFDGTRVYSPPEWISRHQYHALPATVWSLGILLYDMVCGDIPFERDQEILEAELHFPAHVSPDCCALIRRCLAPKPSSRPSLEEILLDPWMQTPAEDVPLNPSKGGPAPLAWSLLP
protocol: Inhibition of full length recombinant human N-terminal GST-tagged PIM2 (1 to 311 residues) expressed in baculovirus infected sf21 cells using S6K2 peptide as substrate by electrophoretic mobility shift assay
observed-property: pIC50
# pIC50 = -log10(concentration in molar units)

QUERY: Give the reported pIC50 for COc1ccc2c(c1CN1CCNCC1)O/C(=C\c1c[nH]c3nc(C)ccc13)C2=O (system: Serine/threonine-protein kinase pim-2 (Homo sapiens, UniProt Q9P1W9)).
RESULT: 6.52

QUERY: Give the reported pIC50 for Cc1ccc2c(/C=C3\Oc4c(ccc(O)c4CN4CCNCC4)C3=O)c[nH]c2n1 (system: Serine/threonine-protein kinase pim-2 (Homo sapiens, UniProt Q9P1W9)).
RESULT: 6.29

QUERY: Give the reported pIC50 for COc1ccc2c(c1CN1CCNCC1)O/C(=C\c1c[nH]c3nc(Cl)ccc13)C2=O (system: Serine/threonine-protein kinase pim-2 (Homo sapiens, UniProt Q9P1W9)).
RESULT: 6.85

QUERY: Give the reported pIC50 for O=C1/C(=C/c2c[nH]c3nc(Cl)ccc23)Oc2c1ccc(O)c2CN1CCNCC1 (system: Serine/threonine-protein kinase pim-2 (Homo sapiens, UniProt Q9P1W9)).
RESULT: 6.85

QUERY: Give the reported pIC50 for O=C1/C(=C/c2c[nH]c3ncccc23)Oc2c1ccc(O)c2CN1CCNCC1 (system: Serine/threonine-protein kinase pim-2 (Homo sapiens, UniProt Q9P1W9)).
RESULT: 6.38

QUERY: Give the reported pIC50 for COc1ccc2c(c1CN1CCNCC1)O/C(=C\c1c[nH]c3ncccc13)C2=O (system: Serine/threonine-protein kinase pim-2 (Homo sapiens, UniProt Q9P1W9)).
RESULT: 6.41

QUERY: Give the reported pIC50 for CCc1ccc2c(/C=C3\Oc4c(ccc(OC)c4CN4CCNCC4)C3=O)c[nH]c2n1 (system: Serine/threonine-protein kinase pim-2 (Homo sapiens, UniProt Q9P1W9)).
RESULT: 6.54

Where do the numbers come from? From ChEMBL document CHEMBL3994673.
